Each recorded value in this set is attributed to patent US9944603B2.

Here the recorded pEC50 is given for each entry.
Tested on: human F508del CFTR (Homo sapiens, UniProt P13569, DEL508-508)
Sequence (P13569 with tags, fused parts or gaps DEL508-508): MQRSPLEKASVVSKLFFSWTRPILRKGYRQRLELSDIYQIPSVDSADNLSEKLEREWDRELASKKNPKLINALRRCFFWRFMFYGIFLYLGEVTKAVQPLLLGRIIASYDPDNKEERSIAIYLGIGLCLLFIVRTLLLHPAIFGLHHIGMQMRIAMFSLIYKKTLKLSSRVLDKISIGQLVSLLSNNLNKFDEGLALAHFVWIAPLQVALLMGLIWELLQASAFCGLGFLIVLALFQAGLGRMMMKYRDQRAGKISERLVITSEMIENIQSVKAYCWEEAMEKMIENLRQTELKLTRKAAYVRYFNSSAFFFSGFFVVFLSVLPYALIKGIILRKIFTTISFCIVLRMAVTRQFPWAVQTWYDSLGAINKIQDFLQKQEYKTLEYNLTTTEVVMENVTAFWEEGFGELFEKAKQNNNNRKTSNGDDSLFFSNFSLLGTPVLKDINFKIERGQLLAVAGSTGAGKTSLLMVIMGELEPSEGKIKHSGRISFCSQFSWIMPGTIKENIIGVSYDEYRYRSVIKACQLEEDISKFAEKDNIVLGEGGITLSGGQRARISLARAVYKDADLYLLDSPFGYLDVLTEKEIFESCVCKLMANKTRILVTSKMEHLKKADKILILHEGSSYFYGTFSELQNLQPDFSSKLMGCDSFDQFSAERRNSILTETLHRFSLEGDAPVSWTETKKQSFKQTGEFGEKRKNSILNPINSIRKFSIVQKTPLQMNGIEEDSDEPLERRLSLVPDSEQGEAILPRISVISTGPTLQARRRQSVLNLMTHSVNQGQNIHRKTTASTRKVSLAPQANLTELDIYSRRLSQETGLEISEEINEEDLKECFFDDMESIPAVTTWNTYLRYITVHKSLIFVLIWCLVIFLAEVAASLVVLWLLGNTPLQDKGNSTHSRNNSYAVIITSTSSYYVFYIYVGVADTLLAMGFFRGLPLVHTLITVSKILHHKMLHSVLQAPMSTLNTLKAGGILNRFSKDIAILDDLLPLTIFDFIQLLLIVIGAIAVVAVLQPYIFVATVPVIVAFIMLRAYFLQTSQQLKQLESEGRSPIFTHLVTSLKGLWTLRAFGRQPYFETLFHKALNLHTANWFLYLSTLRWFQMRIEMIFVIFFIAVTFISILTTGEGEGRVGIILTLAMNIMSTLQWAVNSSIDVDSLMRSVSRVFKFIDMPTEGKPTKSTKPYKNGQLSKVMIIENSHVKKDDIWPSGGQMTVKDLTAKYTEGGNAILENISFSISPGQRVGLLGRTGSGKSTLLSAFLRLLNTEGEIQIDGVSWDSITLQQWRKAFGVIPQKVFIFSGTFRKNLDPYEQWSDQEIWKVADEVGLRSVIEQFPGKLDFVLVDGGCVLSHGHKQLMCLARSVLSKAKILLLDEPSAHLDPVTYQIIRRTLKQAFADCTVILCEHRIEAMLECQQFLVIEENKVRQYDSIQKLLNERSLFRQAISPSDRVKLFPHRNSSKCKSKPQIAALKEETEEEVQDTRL
Protocol details: CFTR-YFP Assay, CFTR Corrector Protocol (YFP flux assay)
pEC50: −log10 of the molar value.

Smiles representation	pEC50
COc1ccc(S(=O)(=O)N2CCC(N(c3ccccn3)S(=O)(=O)c3c(C)cc(C)cc3C)CC2)cc1Cl	> 5.00
COc1ccc(S(=O)(=O)N2CCC(n3c(-c4ncccc4Cl)nc4cccnc43)CC2)cc1Cl	4.70 to 5.00
Cc1cc2cc(S(=O)(=O)N3CCC(n4c(-c5ccncc5F)nc5cccnc54)CC3)ccc2[nH]1	> 5.00
O=S(=O)(c1ccc2c(c1)OC(F)(F)O2)N1CCC(n2c(-c3cccnc3Cl)nc3cccnc32)CC1	> 5.00

---

Here the recorded EC50 is given for each entry.
Tested on: human F508del CFTR (Homo sapiens, UniProt P13569, DEL508-508)
Protocol details: CFTR-YFP Assay, CFTR Corrector Protocol (YFP flux assay)
Readout: EC50

Compound	Tested on	Readout	Value
CCc1ccc(S(=O)(=O)N2CCC(N(C(=O)c3ccccc3Cl)c3ccccc3)CC2)cc1 [Example 210]	human F508del CFTR (Homo sapiens, UniProt P13569, DEL508-508)	EC50	10 to 20 µM
COc1ccc(S(=O)(=O)N2CCC(n3c(-c4ccccc4)cc4cccnc43)CC2)cc1Cl [Example 98]	human F508del CFTR (Homo sapiens, UniProt P13569, DEL508-508)	EC50	< 10 µM
CCc1ccc(S(=O)(=O)N2CCC(N(c3ccc(F)cc3)S(=O)(=O)c3ccccc3Cl)CC2)cc1 [Example 241]	human F508del CFTR (Homo sapiens, UniProt P13569, DEL508-508)	EC50	< 10 µM
CCc1ccc(S(=O)(=O)N2CCC(N(c3ccc(C)cc3)S(=O)(=O)c3ccccc3Cl)CC2)cc1 [Example 237]	human F508del CFTR (Homo sapiens, UniProt P13569, DEL508-508)	EC50	< 10 µM
O=S(=O)(c1ccc2c(c1)OC(F)(F)O2)N1CCC(n2c(-c3ccncc3Cl)nc3cnccc32)CC1 [Example 137]	human F508del CFTR (Homo sapiens, UniProt P13569, DEL508-508)	EC50	10 to 20 µM
Cc1ccc2nc(-c3ccc4c(c3)OC(F)(F)O4)n(C3CCN(S(=O)(=O)c4ccc5c(c4)OC(F)(F)O5)CC3)c2n1 [Example 87]	human F508del CFTR (Homo sapiens, UniProt P13569, DEL508-508)	EC50	> 20 µM
CCc1ccc(S(=O)(=O)N2CCC(N(c3cnc(OC)cn3)S(=O)(=O)c3ccccc3Cl)CC2)cc1 [Example 245]	human F508del CFTR (Homo sapiens, UniProt P13569, DEL508-508)	EC50	< 10 µM
CCc1ccc(S(=O)(=O)N2CCC(n3c(-c4ccncc4F)nc4c(OC)ccnc43)CC2)cc1 [Example 169]	human F508del CFTR (Homo sapiens, UniProt P13569, DEL508-508)	EC50	< 10 µM
Cc1ccc(S(=O)(=O)N2CCC(n3c(-c4ccccc4Cl)nc4ccc(C)nc43)CC2)cc1 [Example 65]	human F508del CFTR (Homo sapiens, UniProt P13569, DEL508-508)	EC50	< 10 µM
CCc1ccc(S(=O)(=O)N2CCC(N(c3ccc(OC)cn3)S(=O)(=O)c3ccccc3Cl)CC2)cc1 [Example 218]	human F508del CFTR (Homo sapiens, UniProt P13569, DEL508-508)	EC50	< 10 µM
O=S(=O)(c1ccc2c(c1)OC(F)(F)O2)N1CCC(n2c(-c3ccccc3)nc3ccccc32)CC1 [Example 82]	human F508del CFTR (Homo sapiens, UniProt P13569, DEL508-508)	EC50	< 10 µM
CCc1ccc(S(=O)(=O)N2CCC(N(c3ccc(OC)cc3)S(=O)(=O)c3ccccc3Cl)CC2)cc1 [Example 236]	human F508del CFTR (Homo sapiens, UniProt P13569, DEL508-508)	EC50	< 10 µM
COc1ccc(S(=O)(=O)N2CCC(n3c(-c4ccccc4Cl)nc4cccnc43)CC2)cc1F [Example 60]	human F508del CFTR (Homo sapiens, UniProt P13569, DEL508-508)	EC50	< 10 µM
COc1ccc(S(=O)(=O)N2CCC(n3c(-c4cccnc4Cl)nc4cccnc43)CC2)cc1Cl [Example 88]	human F508del CFTR (Homo sapiens, UniProt P13569, DEL508-508)	EC50	> 20 µM
O=S(=O)(c1ccc2c(c1)OCO2)N1CCC(n2c(-c3cccnc3Cl)nc3cccnc32)CC1 [Example 92]	human F508del CFTR (Homo sapiens, UniProt P13569, DEL508-508)	EC50	< 10 µM

---

Tested on: human F508del CFTR (Homo sapiens, UniProt P13569, DEL508-508)
Construct: expressed in transfected cells
Protocol details: CFTR-YFP Assay, CFTR Corrector Protocol (YFP flux assay)
Type: cell-based
Particulars: normalized to the positive control, read-out: EMAX (% Efficacy, EMAX normalized to the positive control)
Readout: Emax

Smiles representation	Readout	Value
CCc1ccc(S(=O)(=O)N2CCC(N(C(=O)c3ccccc3Cl)c3ccc(Br)cc3)CC2)cc1	Emax	10 to 30%
O=S(=O)(c1ccc2c(c1)OC(F)(F)O2)N1CCC(n2c(-c3ccccc3)nc3cccnc32)CC1	Emax	30 to 80%
CCc1ccc(S(=O)(=O)N2CCC(n3c(-c4ccncc4Cl)nc4c(OC)ccnc43)CC2)cc1	Emax	10 to 30%
CCc1ccc(S(=O)(=O)N2CCC(N(c3cc(OC)ccn3)S(=O)(=O)c3ccccc3Cl)CC2)cc1	Emax	30 to 80%
Cc1cc(C)c(S(=O)(=O)N(c2cccc(C)n2)C2CCN(S(=O)(=O)c3ccc4c(c3)OC(F)(F)O4)CC2)c(C)c1	Emax	30 to 80%
Cc1ccnc2c1nc(-c1ccncc1Cl)n2C1CCN(S(=O)(=O)c2ccc3c(c2)OC(F)(F)O3)CC1	Emax	30 to 80%
[2H]C1([2H])Oc2ccc(S(=O)(=O)N3CCC(n4c(-c5cccnc5Cl)nc5cccnc54)CC3)cc2O1	Emax	10 to 30%

---

Tested on: human F508del CFTR (Homo sapiens, UniProt P13569, DEL508-508)
Construct: expressed in transfected cells
Protocol details: CFTR-YFP Assay, CFTR Corrector Protocol (YFP flux assay)
Assay type: cell-based
Particulars: normalized to the positive control, read-out: EMAX (% Efficacy, EMAX normalized to the positive control)
Here the recorded Emax is given for each entry.

Compound	Emax
COc1ccc(S(=O)(=O)N2CCC(n3c(-c4ccccc4OC)nc4cccnc43)CC2)cc1Cl	30 to 80%
O=S(=O)(c1ccc2c(c1)OCO2)N1CCC(n2c(-c3cccnc3Cl)nc3cccnc32)CC1	30 to 80%
COc1ccc(S(=O)(=O)N2CCC(N(c3cccc(C)n3)S(=O)(=O)c3c(C)cc(C)cc3C)CC2)cc1Cl	30 to 80%
COc1ccc(S(=O)(=O)N2CCC(N(C(=O)c3ccccc3Cl)c3cccc(C)n3)CC2)cc1F	10 to 30%
CCc1ccc(S(=O)(=O)N2CCC(N(C(=O)Nc3ccccc3Cl)c3ccccn3)CC2)cc1	10 to 30%
COc1ccc(N(C2CCN(S(=O)(=O)c3ccc4c(c3)OC(F)(F)O4)CC2)S(=O)(=O)c2ccccc2Cl)nc1	10 to 30%
CC(=O)N1c2ccc(S(=O)(=O)N3CCC(n4c(-c5ccncc5F)nc5cccnc54)CC3)cc2CC1C (stereo not drawn)	10 to 30%
O=S(=O)(c1ccc2c(c1)OC(F)(F)O2)N1CCC(n2c(-c3ccccc3)nc3ccccc32)CC1	30 to 80%
CCc1ccc(S(=O)(=O)N2CCC(N(C(=O)c3ccccc3Cl)c3cccc(Cl)c3)CC2)cc1	10 to 30%
Cc1ccc2nc(-c3cccnc3Cl)n(C3CCN(S(=O)(=O)c4ccc5c(c4)OCO5)CC3)c2n1	10 to 30%
Cc1noc2ccc(S(=O)(=O)N3CCC(n4c(-c5ccncc5F)nc5cccnc54)CC3)cc12	10 to 30%
COc1ccc(S(=O)(=O)N2CCC(n3c(-c4ccc5c(c4)OCO5)nc4cccnc43)CC2)cc1Cl	30 to 80%
Cc1ccc2nc(-c3ccccc3)n(C3CCN(S(=O)(=O)c4ccc5c(c4)OC(F)(F)O5)CC3)c2n1	30 to 80%
CCc1ccc(S(=O)(=O)N2CCC(n3c(-c4ccncn4)nc4cccnc43)CC2)cc1	10 to 30%
O=S(=O)(c1ccc2cc[nH]c2c1)N1CCC(n2c(-c3ccncc3F)nc3cccnc32)CC1	10 to 30%
CCc1ccc(S(=O)(=O)N2CCC(n3c(-c4cccnc4Cl)nc4cccnc43)CC2)cc1	30 to 80%
O=S(=O)(c1ccc2c(c1)OC(F)(F)O2)N1CCC(n2c(-c3cccnc3Cl)nc3cccnc32)CC1	30 to 80%
COc1ccc(S(=O)(=O)N2CCC(n3c(-c4ccccc4C(F)(F)F)nc4cccnc43)CC2)cc1Cl	30 to 80%
COc1ccc2nc(-c3ccncc3F)n(C3CCN(S(=O)(=O)c4ccc5c(c4)OC(F)(F)O5)CC3)c2n1	30 to 80%
CCc1ccc(S(=O)(=O)N2CCC(N(c3cccc(Cl)n3)S(=O)(=O)c3ccccc3Cl)CC2)cc1	10 to 30%
CCc1ccc(S(=O)(=O)N2CCC(N(c3cccc(OC)c3)S(=O)(=O)c3ccccc3Cl)CC2)cc1	30 to 80%
COc1ccc(S(=O)(=O)N2CCC(n3c(-c4ccccc4)cc4ccccc43)CC2)cc1Cl	10 to 30%
Cc1noc2ccc(S(=O)(=O)N3CCC(n4c(-c5ccc(F)cc5F)nc5cccnc54)CC3)cc12	10 to 30%
Cc1ccc(S(=O)(=O)N2CCC(n3c(-c4ccccc4Cl)nc4ccc(C)nc43)CC2)cc1	30 to 80%
CCc1ccc(S(=O)(=O)N2CCC(N(c3cccc(C)n3)S(=O)(=O)c3ccccc3)CC2)cc1	10 to 30%
[2H]C1([2H])Oc2ccc(S(=O)(=O)N3CCC(n4c(-c5ccncc5Cl)nc5cccnc54)CC3)cc2O1	30 to 80%
Cc1n[nH]c2ccc(S(=O)(=O)N3CCC(n4c(-c5ccc(F)cc5F)nc5cccnc54)CC3)cc12	10 to 30%
O=S(=O)(c1ccc2c(c1)OC(F)(F)O2)N1CCC(n2c(-c3cccnc3F)nc3cccnc32)CC1	> 80%
COc1ccc(S(=O)(=O)N2CCC(N(C(=O)c3ccccc3Cl)c3cccc(C)n3)CC2)cc1Cl	10 to 30%
CCc1ccc(S(=O)(=O)N2CCC(N(c3ccc(C(F)(F)F)cn3)S(=O)(=O)c3ccccc3Cl)CC2)cc1	10 to 30%
